Origin of the recorded values: ChEMBL document CHEMBL1201862

Tested on: TK-10
test name: NCI tumour cell line growth inhibition, 48 h
Active and inactive are the calls of the source. Rule as the data show it: active = GI50 up to about 1.1 µM and inactive = higher.
# Lookup of reported GI50 keyed by entry

Example entries and their recorded answers appear below.
>>> endpoint_result("CN1CSC(=S)N(c2cccc(C(F)(F)F)c2)C1")
"28.6 µM (inactive)"
>>> endpoint_result("COc1ccc2[nH]c3c(C)cc([N+](=O)[O-])c(C)c3c2c1")
"27.1 µM (inactive)"
>>> endpoint_result("CC1Oc2cc3c(-c4c(O)cc(O)c5c(O)c6c(cc45)OC(C)C(C)C6=O)c(O)cc(O)c3c(O)c2C(=O)C1C (stereo not given)")
"0.27 µM (active)"
>>> endpoint_result("O=C(O)c1ccc(Oc2nc3ccccc3s2)cc1")
"> 100 µM (inactive)"
>>> endpoint_result("CSC(SC)=C(C(=O)c1ccc(Cl)cc1)n1c(=O)sc2cc(Br)ccc21")
"> 100 µM (inactive)"

In: Can you look up the measured GI50 of N#CCCN(CCCN(C(=O)N(c1ccccc1)c1ccccc1)c1ccccc1)C(=O)Nc1ccccc1 for me?
Out: > 100 µM (inactive)

In: Can you look up the measured GI50 of CCOC(=O)Cc1ccc(Nc2nc3cc(C(F)(F)F)ccc3nc2C(=O)OCC)cc1 for me?
Out: 49.3 µM (inactive)

In: Can you look up the measured GI50 of Nc1ccc(S(=O)(=O)Nc2cnc3c(Cl)cccc3n2)cc1 for me?
Out: 41.6 µM (inactive)

In: Can you look up the measured GI50 of Cc1ccc(S(=O)(=O)NC2=NS(=O)(=O)c3cc(C)c(Cl)cc3S2)cc1 for me?
Out: > 100 µM (inactive)

In: Can you look up the measured GI50 of O=C1c2ccccc2C(=O)c2[nH]c(Cc3ccccc3F)nc21 for me?
Out: 29.3 µM (inactive)

====

# Lookup of reported GI50 keyed by entry
System: HOP-18
test name: NCI tumour cell line growth inhibition, 48 h
Calls of active or inactive are those of the source. Cut-off read from the data, not from the text of the source: active = GI50 up to about 1.1 µM and inactive = higher.

Example entries and their recorded answers appear below.
>>> endpoint_result("O=S(=O)(/C=C/c1ccc(F)cc1)Cc1ccc(CS(=O)(=O)/C=C/c2ccc(F)cc2)cc1")
"> 100 µM (inactive)"
>>> endpoint_result("COc1cc2c3c(c1OC)C1(C=CC(=O)C=C1)CC3N(C(=O)OC(C)(C)C(Cl)(Cl)Cl)CC2 (stereo not given)")
"22.8 µM (inactive)"
>>> endpoint_result("COc1ccccc1NC(=O)C1=C(C)NC(C)=C(C(=O)Nc2ccccc2OC)C1c1ccccc1OC")
"> 100 µM (inactive)"
>>> endpoint_result("CCOC(=O)CCC(NC(=O)c1ccc(/N=C/c2nc3cc(C(F)(F)F)ccc3nc2-c2ccccc2)cc1)C(=O)OCC (stereo not given)")
"> 100 µM (inactive)"
>>> endpoint_result("CN(C)/C=N/c1nc2ncn(CCOC(=O)c3ccccc3)c2c(=O)[nH]1")
"> 100 µM (inactive)"

Alright, here's another molecule for you.
In: Can you look up the measured GI50 of COc1ccc(CCC2c3cc(OC)c(OC)cc3CCN2C)cc1OC (stereo not given) for me?
Out: > 100 µM (inactive)

====

Test system: Hs-578T
test name: NCI tumour cell line growth inhibition, 48 h
Calls of active or inactive are those of the source. Cut-off read from the data, not from the text of the source: active = GI50 up to about 1.1 µM and inactive = higher.
# Lookup of reported GI50 keyed by entry

>>> endpoint_result("Nc1nc(N)c(NC(=O)CCCO)c(=O)[nH]1")
"> 100 µM (inactive)"
>>> endpoint_result("COc1cc(C2SCC(=O)N2c2ccc(Cl)c(Cl)c2)cc(OC)c1OC (configuration not stated)")
"> 100 µM (inactive)"
>>> endpoint_result("CCOC(=O)NC(Nc1ccc(S(=O)(=O)Nc2ccc(OC)nn2)cc1)(C(F)(F)F)C(F)(F)F")
"35.2 µM (inactive)"
>>> endpoint_result("O=C(Nc1ccccc1)c1cc(S(=O)(=O)n2ccnc2O)c(S)cc1Cl")
"> 100 µM (inactive)"
>>> endpoint_result("CC1Oc2cc3c(-c4c(O)cc(O)c5c(O)c6c(cc45)OC(C)C(C)C6=O)c(O)cc(O)c3c(O)c2C(=O)C1C (configuration not stated)")
"0.0439 µM (active)"

Alright, here's another molecule for you.
In: Please state recorded GI50 (tested on Hs-578T) of O=C1CC(=O)c2c(Cl)sc(Cl)c21
Out: 33.8 µM (inactive)

====

System: HCT-116
test name: NCI tumour cell line growth inhibition, 48 h
Activity calls are given as the source filed them. Cut-off read from the data, not from the text of the source: active = GI50 up to about 1.1 µM and inactive = higher.
observed property: GI50

Example entries and their recorded answers appear below.
>>> endpoint_result("O=c1c2cc(O)ccc2n2nnc3ccc(NCCNCCO)c1c32")
"2.65 µM (inactive)"
>>> endpoint_result("NC(CCC(=O)NC(CSSCCCCS(=O)O)C(=O)NCC(=O)O)C(=O)O (stereo not given)")
"> 100 µM (inactive)"
>>> endpoint_result("OC1(c2ccccc2)CC2CCC(C1)N2CCCC1(c2ccc(F)cc2)OCCO1 (stereo not given)")
"> 100 µM (inactive)"
>>> endpoint_result("NC(=O)C(=Cn1c(=S)[nH]c2ccc([N+](=O)[O-])cc21)C(N)=O")
"> 100 µM (inactive)"

Alright, here's another compound for you.
In: Can you look up the measured GI50 of CCOC(=O)/C(=C\NC(=S)Nc1ccc(Cl)c(Cl)c1)C(=O)c1ccccc1 for me?
Out: 46.5 µM (inactive)

====

Test system: SF-295
test name: NCI tumour cell line growth inhibition, 48 h
Calls of active or inactive are those of the source. Rule as the data show it: active = GI50 up to about 1.1 µM and inactive = higher.
observed property: GI50

Example entries and their recorded answers appear below.
>>> endpoint_result("CN(C)CCNc1ccc2ncn3c4ccccc4c(=O)c1c23")
"2.47 µM (inactive)"
>>> endpoint_result("[N-]=[N+]=Nc1c(Br)c(=O)[nH]c(=O)n1COCCO")
"> 100 µM (inactive)"
>>> endpoint_result("C/C(=N\\N=C(/[SeH])N1CC2CCC(CC2)C1)c1ccccn1")
"0.0673 µM (active)"
>>> endpoint_result("O=C(O)CSc1nnc(COc2ccccc2)n1-c1ccccc1")
"> 100 µM (inactive)"
>>> endpoint_result("CN1C(=O)C23CC4=CC=CC(O)C4N2C(=O)C1(CO)SS3 (configuration not stated)")
"0.181 µM (active)"

In: Please state recorded GI50 (tested on SF-295) of O=C(CCC(=O)C1Cc2ccccc2C1=O)Nc1cccc(C(F)(F)F)c1 (configuration not stated)
Out: > 100 µM (inactive)

In: Please state recorded GI50 (tested on SF-295) of CC(=O)OC1COC(N2C(=O)C(=O)c3cc(Br)ccc32)C(OC(C)=O)C1OC(C)=O (configuration not stated)
Out: > 100 µM (inactive)

In: Please state recorded GI50 (tested on SF-295) of C=C(Br)CNCC(=C)Br
Out: > 100 µM (inactive)

In: Please state recorded GI50 (tested on SF-295) of CCCCOCCOCCOC1=CC(=O)c2c(O)ccc(O)c2C1=O
Out: 1.68 µM (inactive)

====

Tested on: Malme-3M
test name: NCI tumour cell line growth inhibition, 48 h
Active and inactive are the calls of the source. Rule as the data show it: active = GI50 up to about 1.1 µM and inactive = higher. Non-standard residues stand in square brackets, D forms with d. Residues, ends and D or L forms follow the SMILES beside them. *: point of attachment. NMeF = CN[CH](Cc1ccccc1)C(=O)O; NMeV = CN[CH](C(=O)O)C(C)C; Boc = CC(C)(C)OC(=O)*
Output constraint: value belongs to active, inactive

Field: example entries. Status: answers known.
>>> group_label("C=C1C(=O)O[C@H]2[C@H]3O[C@@H](C[C@@H]12)[C@@]1(C)CC[C@H](O1)C(C)=CCC[C@H]3C")
"inactive"
>>> group_label("CC(=O)C(CN(Cc1ccccc1)Cc1ccccc1)C(c1ccccc1)c1c(O)c2ccccc2oc1=O (stereo not drawn)")
"inactive"
>>> group_label("CC(C)C(NC(=O)OC(C)(C)C)C(=O)N(C)C(Cc1ccccc1)C(=O)N(C)C(C(=O)N(C)C(C(=O)O)C(C)C)C(C)C (stereo not drawn) (Boc-V[NMeF][NMeV][NMeV]-OH; configuration not given here)")
"inactive"
>>> group_label("O=C(c1ccco1)N(C(=O)N1CCC(c2ccccc2)CC1)c1ccccc1")
"inactive"
>>> group_label("O=C(Nc1ccc(Cl)c(Cl)c1)C1C(=O)N(c2ccc(Cl)c(Cl)c2)C(=O)/C1=N\\O (stereo not drawn)")
"inactive"

In: Called result for COc1ccc(CC/N=C2\OCc3ccccc32)cc1OC
Out: inactive

In: Called result for N=C(N)NS(=O)(=O)c1ccc(Nc2c3ccccc3nc3c(C(=O)NNCCO)cccc23)cc1
Out: active

In: Called result for C[N+](C)(CCCCCC[N+](C)(C)CCCN1C(=O)c2cccc3cccc(c23)C1=O)CCCN1C(=O)c2cccc3cccc(c23)C1=O
Out: inactive

====

Tested on: M14
test name: NCI tumour cell line growth inhibition, 48 h
Active and inactive are the calls of the source. No stated cut-off is given here; in the data, active = GI50 up to about 1.1 µM and inactive = higher. Non-standard residues stand in square brackets, D forms with d. Residues, ends and D or L forms follow the SMILES beside them. *: point of attachment. NMeF = CN[CH](Cc1ccccc1)C(=O)O; NMeV = CN[CH](C(=O)O)C(C)C; Boc = CC(C)(C)OC(=O)*
observed property: GI50

In: Can you look up the measured GI50 of COc1ccc(CCC2c3cc(OC)c(OC)cc3CCN2C)cc1OC (stereo not drawn) for me?
Out: > 100 µM (inactive)

In: Can you look up the measured GI50 of CC(C)C(NC(=O)OC(C)(C)C)C(=O)N(C)C(Cc1ccccc1)C(=O)N(C)C(C(=O)N(C)C(C(=O)O)C(C)C)C(C)C (stereo not drawn) (Boc-V[NMeF][NMeV][NMeV]-OH; configuration not given here) for me?
Out: > 100 µM (inactive)

In: Can you look up the measured GI50 of CC1CC[C@@]23CCC4(C)[C@@](C=CC5[C@@]6(C)CCC(=O)C(C)(C)C6CC[C@]54C)(OC2=O)[C@@H]3[C@H]1C (stereo partly drawn) for me?
Out: 21.7 µM (inactive)
